- ASSAYED_TARGET: T1, non-activatable Factor X (FXn) (Homo sapiens (Human), UniProt P00742 41-488, single biotin on the C-terminal BioTag)
- T1 construct: also called BIIB-FX-015
- PROTOCOL_TEXT: BLI; class meaning: paragraph 285
QUANTITY_KIND: binding result

INSERT INTO assay_data (binder, quantity_kind, observed_value) VALUES
  ('BIIB-12-919 (antibody, V domains shown, IgG) VH: QVQLVQSGAEVKKPGASVKVSCKASGYTFTSYYMHWVRQAPGQGLEWMGVINPSGGSTSYAQKFQGRVTMTRDTSTSTVYMELSSLRSEDTAVYYCARGANIAVGRRYADYWGQGTLVTVSS VL: DIQMTQSPSTLSASVGDRVTITCRASQSISSWLAWYQQKPGKAPKLLIYKASSLESGVPSRFSGSGSGTEFTLTISSLQPDDFATYYCQQVSSYPTFGGGTKVEIK', 'binding result', 'binds'),
  ('BIIB-12-1323 (antibody, V domains shown, IgG) VH: QVQLVQSGAEVKKPGASVKVSCKASGYTFTSYYIHWVRQAPGQGLEWMGIINPSGGSTSYAQKFQGRVTMTRDTSTSTVYMELSSLRSEDTAVYYCARGRRFPRGLDYWGQGTLVTVSS VL: DIQMTQSPSSVSASVGDRVTITCRASQGISSWLAWYQQKPGKAPKLLIYAASSLQSGVPSRFSGSGSGTDFTLTISSLQPEDFATYYCQQANIFPFTFGGGTKVEIK', 'binding result', 'binds'),
  ('BIIB-12-1300 (antibody, V domains shown, IgG) VH: QVQLVESGGGVVQPGRSLRLSCAASGFTFSSYGMHWVRQAPGKGLEWVAVISYDGSNKYYADSVKGRFTISRDNSKNTLYLQMNSLRAEDTAVYYCARGSKYLHAWGQGTLVTVSS VL: DIQMTQSPSSVSASVGDRVTITCRASQGISSWLAWYQQKPGKAPKLLIYAASSLQSGVPSRFSGSGSGTDFTLTISSLQPEDFATYYCQQASSFPPTFGGGTKVEIK', 'binding result', 'binds');
